Target: T1, human ASGR-1 (human, UniProt P07306 1-291)
T1 construct: Stably expressed on CHO-S cells (CHO-S:huASGR-1); The method text says human or mouse ASGR-1 cells were used; also called huASGR-1; hASGR-1
T1 sequence: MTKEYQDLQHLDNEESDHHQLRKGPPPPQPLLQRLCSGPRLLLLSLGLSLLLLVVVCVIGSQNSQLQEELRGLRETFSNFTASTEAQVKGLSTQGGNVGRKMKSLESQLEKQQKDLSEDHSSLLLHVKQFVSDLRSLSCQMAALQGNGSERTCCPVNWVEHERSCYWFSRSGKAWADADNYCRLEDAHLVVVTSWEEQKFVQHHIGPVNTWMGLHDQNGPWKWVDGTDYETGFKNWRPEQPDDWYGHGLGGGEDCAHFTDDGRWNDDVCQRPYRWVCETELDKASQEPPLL
Assay: FACS ligand blocking on CHO-S ASGR-1 cells; competitor biotinylated asialofetuin
property-measured: % Inhibition (%)
Give just the number in %; leave the unit off.

Study these solved cases before continuing.
# binder, measurement-unit, % Inhibition
measured = [
    ("7E11 (antibody, V domains shown) VH: QVQLVESGGGVVQPGRSLRLSCAASGFTFSSFGMHWVRQAPGKGLEWVAIIWHDGSNKYYADSVKGRFTISRDNSNNTLYLQMSSLRAEDTAVYYCARDLSMGGMDVWGQGTTVTVSS VL: DIQMTQSPSSLSASVGDRVTIACRASQNIISYLNWYQQKPGKAPKFLIYTASSLQSGVPSRFSGSGSGTDFTLTISSLQPEDFAIYYCQQTYSTPLTFGGGTKVEIK", "%", 99),
    ("194C1 (antibody, V domains shown) VH: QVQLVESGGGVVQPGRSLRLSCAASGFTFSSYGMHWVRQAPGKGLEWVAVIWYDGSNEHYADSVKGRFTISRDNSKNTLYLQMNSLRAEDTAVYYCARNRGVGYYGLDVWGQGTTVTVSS VL: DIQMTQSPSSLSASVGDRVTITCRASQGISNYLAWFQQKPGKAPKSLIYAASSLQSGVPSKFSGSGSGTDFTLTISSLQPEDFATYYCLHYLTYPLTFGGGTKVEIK", "%", 99),
    ("193E7 (antibody, V domains shown) VH: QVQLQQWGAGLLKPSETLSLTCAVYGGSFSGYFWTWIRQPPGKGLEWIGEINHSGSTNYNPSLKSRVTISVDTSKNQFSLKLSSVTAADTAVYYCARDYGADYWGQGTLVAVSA VL: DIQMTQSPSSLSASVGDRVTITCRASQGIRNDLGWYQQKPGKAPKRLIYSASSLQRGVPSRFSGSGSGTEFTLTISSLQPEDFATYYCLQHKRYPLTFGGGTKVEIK", "%", 99),
    ("7G4 (antibody, V domains shown) VH: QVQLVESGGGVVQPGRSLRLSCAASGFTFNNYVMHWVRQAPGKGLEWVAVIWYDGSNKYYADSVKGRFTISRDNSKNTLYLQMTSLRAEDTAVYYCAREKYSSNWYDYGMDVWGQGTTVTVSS VL: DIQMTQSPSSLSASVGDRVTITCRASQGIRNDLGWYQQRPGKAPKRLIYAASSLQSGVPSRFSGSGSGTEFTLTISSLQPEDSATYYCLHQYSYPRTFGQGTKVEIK", "%", 96),
    ("194A4 (antibody, V domains shown) VH: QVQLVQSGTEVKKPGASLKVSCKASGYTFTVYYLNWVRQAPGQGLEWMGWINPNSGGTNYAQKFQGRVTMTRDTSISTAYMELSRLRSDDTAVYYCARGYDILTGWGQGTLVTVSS VL: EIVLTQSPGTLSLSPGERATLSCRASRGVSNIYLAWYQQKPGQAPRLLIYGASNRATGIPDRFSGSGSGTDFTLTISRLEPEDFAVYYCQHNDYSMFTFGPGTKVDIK", "%", 99),
]

Value lookup for % Inhibition; key = 56E5 (antibody, V domains shown) VH: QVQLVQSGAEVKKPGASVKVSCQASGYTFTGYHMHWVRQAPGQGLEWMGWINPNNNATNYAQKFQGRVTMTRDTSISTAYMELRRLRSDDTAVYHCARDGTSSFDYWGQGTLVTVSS VL: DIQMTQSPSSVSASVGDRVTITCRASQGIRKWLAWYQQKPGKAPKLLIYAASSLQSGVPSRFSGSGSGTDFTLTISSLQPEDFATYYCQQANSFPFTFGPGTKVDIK 99

Would you mind doing 4H6 (antibody, V domains shown, tested as antibody purified from hybridoma supernatant or made recombinantly) VH: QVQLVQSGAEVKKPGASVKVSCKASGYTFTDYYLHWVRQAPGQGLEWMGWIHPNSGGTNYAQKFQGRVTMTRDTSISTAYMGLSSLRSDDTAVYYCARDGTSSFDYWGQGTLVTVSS VL: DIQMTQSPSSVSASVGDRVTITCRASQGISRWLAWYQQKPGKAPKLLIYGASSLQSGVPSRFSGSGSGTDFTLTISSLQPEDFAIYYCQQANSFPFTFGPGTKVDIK as well? 85

Next: 75G3 (antibody, V domains shown) VH: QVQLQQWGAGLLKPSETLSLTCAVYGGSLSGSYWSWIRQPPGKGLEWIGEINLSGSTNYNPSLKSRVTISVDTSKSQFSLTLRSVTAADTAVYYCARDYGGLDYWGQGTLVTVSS VL: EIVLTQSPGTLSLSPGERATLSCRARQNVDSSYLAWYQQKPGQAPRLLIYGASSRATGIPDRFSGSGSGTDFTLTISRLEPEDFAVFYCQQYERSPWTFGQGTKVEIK 99

Another binder to check: 218G4 (antibody, V domains shown) VH: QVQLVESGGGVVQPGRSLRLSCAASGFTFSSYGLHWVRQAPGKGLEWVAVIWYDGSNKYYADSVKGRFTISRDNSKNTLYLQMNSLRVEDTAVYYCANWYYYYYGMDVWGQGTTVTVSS VL: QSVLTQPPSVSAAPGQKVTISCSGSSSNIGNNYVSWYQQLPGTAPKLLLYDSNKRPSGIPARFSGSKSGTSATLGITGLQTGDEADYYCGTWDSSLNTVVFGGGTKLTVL 99

Queued: 6G7 (antibody, V domains shown) VH: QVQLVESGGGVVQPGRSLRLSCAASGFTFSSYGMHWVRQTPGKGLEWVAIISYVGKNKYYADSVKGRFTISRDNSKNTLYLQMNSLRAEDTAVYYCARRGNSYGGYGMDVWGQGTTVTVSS VL: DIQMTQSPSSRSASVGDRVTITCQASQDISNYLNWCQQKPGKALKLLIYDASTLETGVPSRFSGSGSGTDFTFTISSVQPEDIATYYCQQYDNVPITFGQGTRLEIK 99
